Target: Akt1 (Homo sapiens, UniProt P31749)
Construct: unspecified tag, removed (detagged) (cleaved yes); purchased SignalChem and Proteros (Akt1); Merck Millipore (PDK1) 14-452 (PDK1); none given for Akt1
Sequence (P31749 whole entry): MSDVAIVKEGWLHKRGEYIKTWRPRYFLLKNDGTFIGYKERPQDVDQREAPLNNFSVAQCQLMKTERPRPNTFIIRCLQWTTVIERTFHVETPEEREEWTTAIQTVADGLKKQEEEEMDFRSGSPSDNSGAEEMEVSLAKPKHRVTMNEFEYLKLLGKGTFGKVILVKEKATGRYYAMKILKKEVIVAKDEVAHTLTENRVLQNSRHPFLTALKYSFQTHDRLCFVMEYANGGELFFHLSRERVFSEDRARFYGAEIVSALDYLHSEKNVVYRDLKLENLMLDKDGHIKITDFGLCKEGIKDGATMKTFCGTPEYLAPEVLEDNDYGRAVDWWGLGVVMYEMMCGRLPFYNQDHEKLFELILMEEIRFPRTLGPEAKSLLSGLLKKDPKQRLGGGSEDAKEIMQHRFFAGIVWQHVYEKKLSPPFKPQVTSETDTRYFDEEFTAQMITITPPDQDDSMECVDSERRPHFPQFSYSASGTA
Test: Akt activation assay (PDK1-mediated activation, LANCE Ultra crosstide TR-FRET), Akt1
Format: biochemical
Conditions: read-out: Biological Assay 1 IC50 (nM) Akt1
measurement type: IC50

• CCN(C(C)=O)[C@H]1CC[C@H](CC(=O)Nc2cc(-c3ccccc3)c(-c3ccc([C@]4(N)C[C@](C)(O)C4)cc3)nn2)CC1 = > 13000 nM

# CN(C(=O)CC1CC1)[C@H]1CC[C@H](CC(=O)Nc2cnc(-c3ccc(C(C)(C)N)cc3)c(-c3ccccc3)c2)CC1 with Akt1 (Homo sapiens, UniProt P31749): IC50 is > 30000 nM

# NC1(c2ccc(-c3cnc(NC(=O)C[C@H]4CC[C@H](N5CCOC5=O)CC4)cc3-c3ccccc3F)cc2)CCC1 with Akt1 (Homo sapiens, UniProt P31749): IC50 is > 30000 nM

###

Target: p-Akt2 in WM115 cells (Homo sapiens, UniProt P31751)
Construct: SureFire assays to detect cellular p-Akt1, p-Akt2 and p-Akt3 levels in WM115 cells (Akt2/3) and LNCaP cells (Akt1); endogenous in cells; host or cells: WM115 (ECACC 91061232), insulin-stimulated
Sequence (P31751 whole entry): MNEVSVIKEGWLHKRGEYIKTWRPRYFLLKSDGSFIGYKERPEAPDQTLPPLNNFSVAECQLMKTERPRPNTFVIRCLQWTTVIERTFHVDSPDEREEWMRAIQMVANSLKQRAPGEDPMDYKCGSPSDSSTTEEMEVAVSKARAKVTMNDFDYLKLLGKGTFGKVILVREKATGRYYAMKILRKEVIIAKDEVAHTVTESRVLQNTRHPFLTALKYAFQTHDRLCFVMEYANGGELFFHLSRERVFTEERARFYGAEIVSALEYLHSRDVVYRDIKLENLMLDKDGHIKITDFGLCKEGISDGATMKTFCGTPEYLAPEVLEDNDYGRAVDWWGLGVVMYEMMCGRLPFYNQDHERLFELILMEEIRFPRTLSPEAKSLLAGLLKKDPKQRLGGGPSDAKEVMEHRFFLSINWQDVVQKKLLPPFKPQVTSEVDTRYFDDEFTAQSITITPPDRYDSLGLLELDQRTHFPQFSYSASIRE
Experiment: Phospho-Akt cellular SureFire assay, p-Akt2 in WM115 cells
Type: cell-based
Conditions: insulin stimulated, read-out: Biological Assay 2 IC50 (nM) Akt2 WM115
measurement type: IC50 (nM)

- COC(=O)N(C)C1CCC(CC(=O)Nc2cnc(-c3ccc(C4(N)CC(F)C4)cc3)c(-c3ccsc3)c2)CC1 (stereo not shown): 10000
- CN(C(=O)C1CC1)[C@H]1CC[C@H](CC(=O)Nc2cc(-c3ccccc3)c(-c3ccc(C(C)(C)N)cc3)nn2)CC1: 8300
- CC(C)(N)c1ccc(-c2ncc(NC(=O)C[C@H]3CC[C@H](NC(=O)C4CC4)CC3)cc2-c2ccsc2)cc1: 9000

###

Biological target: Akt3 (Homo sapiens, UniProt Q9Y243)
Construct: unspecified tag, removed (detagged) (cleaved yes); purchased SignalChem and Proteros (Akt3); Merck Millipore (PDK1) 14-452 (PDK1); none given for Akt3
Sequence (Q9Y243 whole entry): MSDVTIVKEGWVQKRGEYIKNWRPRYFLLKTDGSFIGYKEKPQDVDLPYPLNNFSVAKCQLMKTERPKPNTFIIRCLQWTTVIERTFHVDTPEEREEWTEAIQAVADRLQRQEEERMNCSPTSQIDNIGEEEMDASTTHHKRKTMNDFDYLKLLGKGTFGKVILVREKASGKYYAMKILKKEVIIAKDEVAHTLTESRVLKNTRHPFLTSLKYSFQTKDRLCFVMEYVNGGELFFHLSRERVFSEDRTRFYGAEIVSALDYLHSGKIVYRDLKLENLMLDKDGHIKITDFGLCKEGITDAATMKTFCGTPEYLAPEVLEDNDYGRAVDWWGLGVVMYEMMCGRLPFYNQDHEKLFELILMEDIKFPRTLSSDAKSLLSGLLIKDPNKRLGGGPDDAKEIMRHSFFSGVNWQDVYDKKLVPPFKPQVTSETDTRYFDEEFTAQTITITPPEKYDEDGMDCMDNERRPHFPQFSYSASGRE
Experiment: Akt activation assay (PDK1-mediated activation, LANCE Ultra crosstide TR-FRET), Akt3
Type: biochemical
Conditions: read-out: Biological Assay 1 IC50 (nM) Akt3
measurement type: IC50 (nM)

* CC(=O)N(C)[C@H]1CC[C@H](CC(=O)Nc2cnc(-c3ccc(C(C)(C)N)c(F)c3)c(-c3ccccc3)c2)CC1 | 1700

[A] CC(C)C(=O)N(C)[C@H]1CC[C@H](CC(=O)Nc2cc(-c3ccccc3)c(-c3ccc([C@]4(N)C[C@](C)(O)C4)cc3)cn2)CC1
[B] CCC(=O)N(C)[C@H]1CC[C@H](CC(=O)Nc2cc(-c3ccccc3)c(-c3ccc([C@]4(N)C[C@](C)(O)C4)c(F)c3)cn2)CC1
Higher IC50 between A and B ? Which one? Tell me its label.
B

###

Reported IC50 values are given for each entry in this list.
Biological target: Akt1 (Homo sapiens)
Construct: unspecified tag, removed (detagged) (cleaved yes); purchased SignalChem and Proteros (Akt1); Merck Millipore (PDK1) 14-452 (PDK1); none given for Akt1
Test: Akt activation assay (PDK1-mediated activation, LANCE Ultra crosstide TR-FRET), Akt1
Assay type: biochemical
Conditions: read-out: Biological Assay 1 IC50 (nM) Akt1
Description: Biological Assay 1: Akt Activation Assay Addition of a Europium-labelled antibody specific to the phosphopeptide allows energy transfer from the Europium donor to the Ultra Ulight™ acceptor if close enough in proximity. […] 5 μL enzyme in 1×AB was incubated with 2.5 μL test compound. […] Plates read with the EnVision® Multilabel Plate Reader, excitation at 320 nm and emission at 665 nm and 615 nm. Compound IC50 was determined using a 4-parameter equation.

The examples below pair each entry with its known result.
- NC1(c2ccc(-c3ncc(NC(=O)[C@@H](F)C4CCN(S(=O)(=O)C5CC5)CC4)cc3-c3ccccc3)cc2)CCC1 [Example 50]: 5800 nM
- CCC(=O)N(C(C)C)[C@H]1CC[C@H](CC(=O)Nc2cnc(-c3ccc([C@]4(N)C[C@](C)(O)C4)cc3)c(-c3ccccc3)c2)CC1 [Example 122]: 6100 nM
- CC(=O)N(C)[C@H]1CC[C@H](CC(=O)Nc2cc(-c3ccccc3)c(-c3ccc([C@]4(N)C[C@](C)(O)C4)c(F)c3)nn2)CC1 [Example 127]: > 25000 nM
- CN(C(=O)C(F)F)[C@H]1CC[C@H](CC(=O)Nc2cc(-c3ccccc3)c(-c3ccc([C@]4(N)C[C@](C)(O)C4)cc3)cn2)CC1 [Example 109]: > 30000 nM

# CCC(=O)N(C)[C@H]1CC[C@H](CC(=O)Nc2cc(-c3ccccc3)c(-c3ccc([C@]4(N)C[C@H](F)C4)cc3)nn2)CC1 [Example 123] with Akt1 (Homo sapiens): IC50 is > 25000 nM

# NC1(c2ccc(-c3cnc(NC(=O)C[C@H]4CC[C@H](N5CCOC5=O)CC4)cc3-c3ccsc3)cc2)CCC1 [Example 70] with Akt1 (Homo sapiens): IC50 is > 30000 nM

# CN(C(=O)C1CCC1)[C@H]1CC[C@H](CC(=O)Nc2cnc(-c3ccc(C(C)(C)N)cc3)c(-c3ccccc3)c2)CC1 [Example 47] with Akt1 (Homo sapiens): IC50 is > 30000 nM

###

Target: Akt1 (Homo sapiens, UniProt P31749)
Construct: unspecified tag, removed (detagged) (cleaved yes); purchased SignalChem and Proteros (Akt1); Merck Millipore (PDK1) 14-452 (PDK1); none given for Akt1
Assay: Akt activation assay (PDK1-mediated activation, LANCE Ultra crosstide TR-FRET), Akt1
Format: biochemical
Conditions: read-out: Biological Assay 1 IC50 (nM) Akt1
measurement type: IC50 (nM)

[A] C[C@]1(O)C[C@@](N)(c2ccc(-c3ncc(NC(=O)C[C@H]4CC[C@H](N5CCOCC5)CC4)cc3-c3ccccc3)cc2)C1
[B] CC(=O)N(C)[C@H]1CC[C@H](CC(=O)Nc2cnc(-c3ccc(C4(N)CC(F)(F)C4)cc3)c(-c3ccccc3)c2)CC1
[C] CCOC(=O)N(C)[C@H]1CC[C@H](CC(=O)Nc2cc(-c3ccsc3)c(-c3ccc([C@]4(N)C[C@](C)(O)C4)cc3)cn2)CC1
Sort the items above on IC50, descending. Returns: the labels listed in the requested order.
C, B, A
(C: 10000 nM, B: 3900 nM, A: 260 nM)

###

Reported IC50 values are given for each entry in this list.
Target: Akt1 (Homo sapiens, UniProt P31749)
Construct: unspecified tag, removed (detagged) (cleaved yes); purchased SignalChem and Proteros (Akt1); Merck Millipore (PDK1) 14-452 (PDK1); none given for Akt1
Assay: Akt activation assay (PDK1-mediated activation, LANCE Ultra crosstide TR-FRET), Akt1
Format: biochemical
Details: read-out: Biological Assay 1 IC50 (nM) Akt1

The examples below pair each entry with its known result.
- CC(=O)N(C(C)C)[C@H]1CC[C@H](CC(=O)Nc2cc(-c3ccccc3)c(-c3ccc([C@]4(N)C[C@](C)(O)C4)cc3)nn2)CC1 [Example 100]: 2400 nM
- CN([C@H]1CC[C@H](CC(=O)Nc2cnc(-c3ccc(C(C)(C)N)cc3)c(-c3ccsc3)c2)CC1)S(C)(=O)=O [Example A24]: > 30000 nM

IC50 reading for CCC(=O)N(C)[C@H]1CC[C@H](CC(=O)Nc2cc(-c3ccccc3)c(-c3ccc(C(C)(C)N)cc3)nn2)CC1 [Example A84] : > 30000 nM

IC50 reading for CC(C)(N)c1ccc(-c2nnc(NC(=O)C[C@H]3CC[C@H](N4CCOC4=O)CC3)cc2-c2ccsc2)cc1 [Example 80] : > 30000 nM

IC50 reading for CC(=O)N(C)[C@H]1CC[C@H](CC(=O)Nc2cnc(-c3ccc(C(C)(C)N)cc3)c(-c3ccccc3)c2)CC1 [Example 3] : > 30000 nM

IC50 reading for NC1(c2ccc(-c3ncc(NC(=O)C[C@H]4CC[C@H](N5CCOCC5)CC4)cc3-c3ccccc3)cc2)CC(F)(F)C1 [Example A2] : 5500 nM

IC50 reading for COC(=O)N(C)[C@H]1CC[C@H](CC(=O)Nc2cc(-c3ccsc3)c(-c3ccc([C@]4(N)C[C@](C)(O)C4)cc3)nn2)CC1 [Example 84] : 2600 nM

###

Molecular target: p-Akt2 in WM115 cells (Homo sapiens)
Construct: SureFire assays to detect cellular p-Akt1, p-Akt2 and p-Akt3 levels in WM115 cells (Akt2/3) and LNCaP cells (Akt1); endogenous in cells; host or cells: WM115 (ECACC 91061232), insulin-stimulated
Test: Phospho-Akt cellular SureFire assay, p-Akt2 in WM115 cells
Format: cell-based
Details: insulin stimulated, read-out: Biological Assay 2 IC50 (nM) Akt2 WM115
measurement type: IC50 (nM)

The examples below pair each entry with its known result.
- CC(=O)N(C)[C@H]1CC[C@H](CC(=O)Nc2cnc(-c3ccc(C4(N)CCC4)cc3)c(-c3ccccc3F)c2)CC1: 710
- CN(C)C(=O)[C@H]1CC[C@H](CC(=O)Nc2cnc(-c3ccc(C(C)(C)N)cc3)c(-c3ccccc3)c2)CC1: 3800

[P] COC(=O)N(C)[C@H]1CC[C@H](CC(=O)Nc2cnc(-c3ccc(C(C)(C)N)cc3)c(-c3ccccc3)c2)CC1
[Q] CC(=O)N(C)[C@H]1CC[C@H](CC(=O)Nc2cc(-c3ccccc3)c(-c3ccc(C4(N)CCC4)cc3)cn2)CC1
Higher IC50 between P and Q ? Which one? Tell me its label.
P
(P: 5200 nM, Q: 2500 nM)
